# experiment: TIMS collision cross section in N2 (TIMS CCS N2); higher = larger gas-phase ion size
# condition_details: ion species: [M-H+Na+HCO2H]-; drift gas: N2 (99.4% N2, 0.6% O2); calibration: Stow et al. 2017 values for Agilent ESI-L Low Concentration Tune Mix; ionization: negative ESI
Catalogue of TIMS collision cross section in N2 readings, one per entry.

molecule: O=c1c(O)c(-c2ccc(O)cc2)oc2cc(OC3OC(CO)C(O)C(O)C3O)cc(O)c12 (configuration not stated) [kaempferol-7-O-glucoside]
TIMS collision cross section in N2, Å²: 230.04
//
molecule: COc1ccc(C2CC(=O)c3c(ccc(O)c3O)O2)cc1OC (configuration not stated) [5,6-dihydroxy-3',4'-dimethoxy-flavanone]
TIMS collision cross section in N2, Å²: 192.04
//
molecule: COc1ccc(-c2cc(=O)c3c(O)cc(O[C@@H]4O[C@H](CO[C@@H]5O[C@@H](C)[C@H](O)[C@@H](O)[C@H]5O)[C@@H](O)[C@H](O)[C@H]4O)cc3o2)cc1O [Diosmin]
TIMS collision cross section in N2, Å²: 247.05
//
molecule: O=c1cc(-c2ccccc2)oc2cccc(O)c12 [5-Hydroxyflavone]
TIMS collision cross section in N2, Å²: 173.98
//
molecule: CC1(C)CC[C@]2(C)CC[C@]3(C)C(=CC[C@@H]4[C@@]5(C)CC[C@@H](O)[C@](C)(C(=O)O)[C@@H]5CC[C@]43C)[C@@H]2C1 [Boswellic acid, alpha-]
TIMS collision cross section in N2, Å²: 239.79
//
molecule: O=C1c2c(O)cc(O)cc2O[C@H](c2ccc(O)cc2)[C@H]1O [Dihydrokaempferol]
TIMS collision cross section in N2, Å²: 186.44
//
molecule: COc1cc(-c2cc(=O)c3c(O)c(OC)c(O)c(OC)c3o2)cc(O)c1OC [scaposin]
TIMS collision cross section in N2, Å²: 209.41

---

# experiment: TIMS collision cross section in N2 (TIMS CCS N2); higher = larger gas-phase ion size
# condition_details: ion species: [M-H+HCO2H]-; drift gas: N2 (99.4% N2, 0.6% O2); calibration: Stow et al. 2017 values for Agilent ESI-L Low Concentration Tune Mix; ionization: negative ESI
± gives the uncertainty stated by the source.
property_name: TIMS collision cross section in N2

molecule: COc1ccc([C@@H]2CC(=O)c3c(O)cc(O[C@@H]4O[C@H](CO)[C@@H](O)[C@H](O)[C@H]4O)cc3O2)cc1
value_reported: 213.68 ± 0.13 Å²
//
molecule: CCCCCCCCCCO[C@@H]1O[C@H](CO)[C@@H](O)[C@H](O)[C@H]1O [n-Decyl-beta-D-glucopyranoside]
value_reported: 198.21 ± 0.31 Å²
//
molecule: COc1ccc(-c2oc3c(CC=C(C)C)c(O[C@@H]4O[C@H](CO)[C@@H](O)[C@H](O)[C@H]4O)cc(O)c3c(=O)c2O[C@@H]2O[C@@H](C)[C@H](O)[C@@H](O)[C@H]2O)cc1
value_reported: 256.3 ± 1.1 Å²
//
molecule: CCCCCCCCO[C@@H]1O[C@H](CO)[C@@H](O)[C@H](O)[C@H]1O [n-Octyl-beta-D-glucopyranoside]
value_reported: 190.02 ± 0.2 Å²
//
molecule: COc1ccc(-c2coc3cc(O[C@@H]4O[C@H](CO)[C@@H](O)[C@H](O)[C@H]4O)ccc3c2=O)cc1 [Ononin (Formononetin 7-O-glucoside)]
value_reported: 223.35 ± 0.14 Å²
//
molecule: CC1(C)CC[C@]2(C(=O)O)CC[C@]3(C)C(=CC[C@@H]4[C@@]5(C)C[C@H](O)[C@H](O)[C@@](C)(CO)[C@@H]5CC[C@]43C)[C@@H]2C1
value_reported: 234.73 ± 0.27 Å²
